Where do these numbers come from? They come from patent US20230322924A1.

// reported MFI at 6 nM mAb per item
Target of assay: T1, Human CD33 full length, expressed on HEK293F cells (human, UniProt P20138 18-364)
T1 construct: HEK293F cells transduced with lentivirus containing full length human CD33; also called huCD33
T1 sequence (P20138 18-364 limits assumed): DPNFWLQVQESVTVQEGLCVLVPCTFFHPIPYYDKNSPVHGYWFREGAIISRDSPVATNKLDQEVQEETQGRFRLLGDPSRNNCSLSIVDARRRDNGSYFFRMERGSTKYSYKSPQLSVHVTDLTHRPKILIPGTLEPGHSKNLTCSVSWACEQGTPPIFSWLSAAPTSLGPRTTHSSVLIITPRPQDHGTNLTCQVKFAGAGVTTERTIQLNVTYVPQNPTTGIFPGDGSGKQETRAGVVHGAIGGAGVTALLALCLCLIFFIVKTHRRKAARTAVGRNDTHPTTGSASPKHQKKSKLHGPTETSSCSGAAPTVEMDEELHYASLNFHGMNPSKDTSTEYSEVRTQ
Measurement notes: flow cytometry, HEK293F cells expressing human CD33
Just the number in MFI, nothing appended.

| Binder | Measurement units | MFI at 6 nM mAb |
| --- | --- | --- |
| C33B88 (antibody, IgG1, V domains shown, huIgG1 F405L; also called C33F93; C33H88/C33L61) VH: QVQLVQSGSELKKPGASVKVSCKASGYTLTRSAMNWVRQAPGQGLEWMGWINTNTGNPTYAQGFTGRFVFSLDTSVNTAYLLISSLKTEDTAVYYCASDILPGYHEDYWGQGTLVTVSS VL: QSALTQPASVSGSPGQSITISCTGINSDVGSYDLVSWYQQHPGKAPKLLIYDGSERPSGVFGRFSGSKSDNTTSLTISGLQAEDEAAYYCCSYEVTTTYVVFGGGTKLTVL | MFI | 481000 |

Give MFI at 6 nM mAb for the following binder: C33B72 (antibody, IgG1, V domains shown, huIgG1 F405L; also called C33F77; C33H65/C33L47) VH: QVQLVESGGGVVQPGRSLRLSCAASGFTFSSYGMHWVRQAPGKGLEWVVVISYDGSNKYYADSVKGRFTISRDNSKNTLYLQMNSLRAEDTAVYYCAKDFRDFDWLPPDSTSYHGMDVWGQGTTVTVSS VL: SYELTQPPSVSVSPGQTASITCSGDKLGDKYACWYQQKPGQSPVVVIYQDRKRPSGIPERFSGSNFGNTATLTISGTQAMDEADYYCQAWDSSTVVFGGGTKLTVL
105000
